- Test system: IKK-alpha;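 further: KINOMEscan kinase panel screen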
- Construct: gene CHUK
- Assay Conditions: concentration: 1 μM, replicates: in singlicate; n = 1
Measured %Inh, listed per entry for reference.

# example entries with known answers
{"Substance Smiles": "CN1C(=O)C(Nc2ccccc2)=C(c2ccccc2)C1=O", "%Inh": "11%"}
{"Substance Smiles": "COc1cc(OC)cc(-c2cc3cnc(N)nc3nc2NC(=O)NC(C)(C)C)c1", "%Inh": "7%"}
{"Substance Smiles": "Cc1ccccc1COc1cc(-n2cnc3cc(Cl)ccc32)sc1C(N)=O", "%Inh": "0%"}

As a next step, examine the molecule that follows.
The reported value for Nc1ncnc2c1ncn2-c1cccc(F)c1 in terms of %Inh is 13%
